Tested on: Mycobacterium smegmatis ATCC 700084
Test: In vitro antimycobacterial activity, broth dilution MIC
Assay type: cell-based
Conditions: Mycolicibacterium smegmatis, ATCC700084; M. smegmatis ATCC 700084; read-out: log(1/MIC [M]) MS (converted)
READOUT: MIC (M)
Kindly provide the numeric value in M only, without the unit symbol.

Worked cases, MIC given:
O=C(/C=C/c1ccc(Cl)cc1)Nc1cc(C(F)(F)F)cc(C(F)(F)F)c1    2.51e-06
NNC(=O)c1ccncc1 [INH, isoniazid, reference compound]    0.000117
O=C(/C=C/c1ccc(Cl)c(Cl)c1)Nc1cc(C(F)(F)F)cc(C(F)(F)F)c1    1.07e-05

Turning now to a further molecule:
Find the measured MIC of `O=C(/C=C/c1ccc(Cl)c(Cl)c1)Nc1ccc(OC(F)(F)F)cc1` and report it. 2.34e-06
